biological target: translation of firefly luciferase, S. aureus 133 S30 extract; experiment: In vitro transcription-translation with S. aureus extracts; settings: reporter plasmid pla, 30° C., 60 min, luciferase luminescence
Counter-ions that a name gives are not always drawn.
reported-metric: pIC50
Schema: pIC50 number; meaning minus log10 of the concentration expressed in molar units.

[[record]]
molecule = "NC[C@H](O)C[C@@H]1NC(=O)[C@@H](N)Cc2cc(ccc2O)-c2ccc(O)c(c2)C[C@@H](C(=O)NCC(N)=O)NC1=O [Example 37]"
number = 6.30


Inquiry: // pIC50 lookup, key: NC[C@H](O)C[C@@H]1NC(=O)[C@@H](N)Cc2cc(ccc2O)-c2ccc(O)c(c2)C[C@@H](C(N)=O)NC1=O [Example 1, dihydrochloride]
Reply text: 6.05

Just for reference, patent US20070129288A1 is where these values come from.
